target: AlaRS^R329H (Homo sapiens, UniProt P49588, R329H); construct: made in house; host or cells: E. coli BL21 (DE3), pET-21a; assay: ATP consumption assay (enzyme inhibition); assay type: biochemical; conditions: 1 μM AlaRS^R329H at 20 μM compounds; vs DMSO control
Where a name gives a salt, the structure may show the parent alone.
assay metric: Relative Activity (relative enzyme activity of the first step) (%)

P. Cc1coc2c1C(=O)C(=O)c1c-2ccc2c(C)cccc12
Q. COC(=O)N[C@H](C(=O)N[C@@H](Cc1ccccc1)[C@@H](O)CN(Cc1ccc(-c2ccccn2)cc1)NC(=O)[C@@H](NC(=O)OC)C(C)(C)C)C(C)(C)C [Atazanavir sulfate, reference compound]
## Input I'd appreciate it if you could identify which of P and Q has the greater Relative Activity (relative enzyme activity of the first step). Write the label of whichever entry you select.
## Output Q
(Q: 96.8%, P: 26.2%)

###

Biological target: AlaRS^N71Y (Homo sapiens, UniProt P49588, N71Y)
Test: Biolayer interferometry (BLI)
Settings: immobilized AlaRS^N71Y, mean ± SD, triplicate
Method: Furthermore, we examined the interaction of Tanshinone I with additional AlaRS CMT mutants capable of binding to Nrp1 and causing conformational changes by BLI and proteolysis assays on additional related mutants. […] To further quantify the binding of small molecules to mutant proteins, binding experiments with AlaRS^R329H proteins and small molecules were conducted using an Octet R8 system (ForteBio, Fremont, CA, USA). […]
assay metric: Kd (µM)
Please give a number only; it is taken to be in µM.

## Input # get_value(readout='Kd', item= Cc1coc2c1C(=O)C(=O)c1c-2ccc2c(C)cccc12 [Tanshinone I] )
## Output 37.8

###

molecular target: AlaRS^R329H (Homo sapiens, UniProt P49588, R329H); assay: Biolayer interferometry (BLI); conditions: immobilized AlaRS^R329H, 40, 20, 10, 5, 2.5 μM, mean ± SD, triplicate
pKd: −log10 of the molar value. Structures can show the parent of a compound that is named as a salt.
assay metric: pKd

COC(=O)N[C@H](C(=O)N[C@@H](Cc1ccccc1)[C@@H](O)CN(Cc1ccc(-c2ccccn2)cc1)NC(=O)[C@@H](NC(=O)OC)C(C)(C)C)C(C)(C)C [Atazanavir sulfate, reference compound] = 4.54
C[C@@H]1O[C@@H](O[C@H]2[C@H](O[C@H]3CC[C@]4(C)[C@H]5CC=C6[C@@H]7CC(C)(C)CC[C@]7(C(=O)O)CC[C@@]6(C)[C@]5(C)CC[C@H]4C3(C)C)OC[C@H](O[C@@H]3O[C@H](CO)[C@@H](O)[C@H](O)[C@H]3O)[C@@H]2O)[C@H](O)[C@H](O)[C@H]1O [Hederacolchiside A1] = 5.00

A. CCCCCCc1ccc(O)cc1O [Hexylresorcinol, reference compound]
B. Cc1coc2c1C(=O)C(=O)c1c-2ccc2c(C)cccc12
## Input When the recorded pKd values are compared, which is smaller: that of A or that of B ? Write the label of whichever entry you select.
## Output A

###

Biological target: AlaRS^G102R (Homo sapiens, UniProt P49588, G102R)
Sequence (P49588 1-968 G102R): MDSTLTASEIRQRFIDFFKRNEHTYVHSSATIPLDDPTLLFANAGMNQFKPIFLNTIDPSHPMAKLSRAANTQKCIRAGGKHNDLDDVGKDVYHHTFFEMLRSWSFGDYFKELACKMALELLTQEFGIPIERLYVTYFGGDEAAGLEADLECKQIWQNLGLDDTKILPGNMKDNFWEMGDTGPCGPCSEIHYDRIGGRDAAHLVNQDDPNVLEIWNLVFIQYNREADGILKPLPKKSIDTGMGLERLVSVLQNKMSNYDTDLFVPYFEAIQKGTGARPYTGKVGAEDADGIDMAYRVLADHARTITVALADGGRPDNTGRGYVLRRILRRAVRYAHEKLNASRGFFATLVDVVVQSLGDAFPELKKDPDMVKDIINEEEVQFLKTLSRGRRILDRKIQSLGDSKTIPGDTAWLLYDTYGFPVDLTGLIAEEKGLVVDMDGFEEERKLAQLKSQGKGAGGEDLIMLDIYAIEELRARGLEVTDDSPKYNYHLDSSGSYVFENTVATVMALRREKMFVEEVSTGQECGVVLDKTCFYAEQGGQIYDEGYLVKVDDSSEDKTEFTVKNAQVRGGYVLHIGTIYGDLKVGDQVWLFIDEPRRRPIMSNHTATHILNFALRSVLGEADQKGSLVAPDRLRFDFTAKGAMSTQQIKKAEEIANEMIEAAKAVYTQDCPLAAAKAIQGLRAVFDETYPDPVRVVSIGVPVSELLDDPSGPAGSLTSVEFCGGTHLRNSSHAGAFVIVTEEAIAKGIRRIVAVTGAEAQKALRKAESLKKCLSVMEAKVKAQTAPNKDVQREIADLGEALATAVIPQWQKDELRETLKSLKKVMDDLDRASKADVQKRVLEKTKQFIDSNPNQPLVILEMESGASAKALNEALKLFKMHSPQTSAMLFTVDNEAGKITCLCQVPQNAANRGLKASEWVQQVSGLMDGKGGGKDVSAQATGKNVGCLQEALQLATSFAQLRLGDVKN
Test: Biolayer interferometry (BLI)
Details: immobilized AlaRS^G102R, mean ± SD, triplicate
assay metric: pKd
Recall that pKd is obtained by taking minus log10 of the concentration measured in molar.

## Input # get_value(readout='pKd', item= `Cc1coc2c1C(=O)C(=O)c1c-2ccc2c(C)cccc12` )
## Output 4.51

###

target: AlaRS^E337K (Homo sapiens, UniProt P49588, E337K); construct: made in house; host or cells: E. coli BL21 (DE3), pET-21a; test: Biolayer interferometry (BLI); format: binding; details: immobilized AlaRS^E337K, mean ± SD, triplicate
assay metric: Kd (µM)
Please give a number only; it is taken to be in µM.

## Input # get_value(readout='Kd', item= `Cc1coc2c1C(=O)C(=O)c1c-2ccc2c(C)cccc12` )
## Output 19.2
